Reference source: patent US20250213527A1

Experiment: Psilocin-d10 pharmacokinetics in female beagle dogs, oral gavage and intravenous (bolus)
Conditions: female, beagle, dog, plasma, iv, 0.2 mg/kg, t1/2, female dog plasma, single IV bolus 0.20 mg/kg, Mean (N=3)
Measurement Name: half-life (h)
Expressed in h, but write only the number.

Query [2H]C([2H])([2H])N(C([2H])([2H])[2H])C([2H])([2H])C([2H])([2H])c1c[nH]c2cccc(O)c12 yields half-life of 1.37

----------
Experiment: Psilocin-d10 pharmacokinetics in female beagle dogs, oral gavage and intravenous (bolus)
Details: female, beagle, dog, plasma, iv, 0.2 mg/kg, Vss, female dog plasma, single IV bolus 0.20 mg/kg, animal 61F
Measurement Name: Vd (L/kg)
Expressed in L/kg, but write only the number.

Query [2H]C([2H])([2H])N(C([2H])([2H])[2H])C([2H])([2H])C([2H])([2H])c1c[nH]c2cccc(O)c12 yields Vd of 4.28
